- TARGET_DESC: Man(a1-3)[Man(a1-6)]Man
- MEASUREMENT_NOTES: glycan array binding signal (z-score within array); higher = stronger binding
- MEASUREMENT_SETUP: glycan notation: IUPAC condensed, linker removed
Shown is part of a subset that was picked to be rich in the strongest signals.
ASSAY_METRIC: glycan array binding signal (z-score)

binder="AFL5 (Aspergillus fumigatus), Q4WB00 (protein) MDNFMEMTKKLGHQPELLRLRALDATYDDALEGKLVVAPLDMSEPGKKILDSGTADGTWLRNVRSKQSVPHDYYGSDVEGELFPKDPDGITYFAHSFKDPWPQQYLGFFDLVHIRGSLAGSAPEGPAPVIQNLTTLLKPGGWVQLMEMNAFSPPPNGPAMTDFAKMASEMFTGIGVGDFANNNKSMLEDAGLKNVQEKRVIVNLGKKAKPELHDQSIHGVTGPIVPLTSVARTVKSSFTGEQLDALPARVKEELETEGGQVEMIIAFGQKA" recorded_number=0.203

Where these numbers come from: the supplement of paper PMC8728848
